Biological target: B*0702 class I MHC molecules in cells infected with the PR8 strain of influenza A virus (Homo sapiens, UniProt P01889)
Format: cell-based
Mark class 1 only for Fold Increase values smaller than 2; exact matches and larger values are class 0.

As a guide, the following entries are already answered.
{"substance": "YPKRPLLGL", "class_label": "class 1"}
{"substance": "LLPGENINLL", "class_label": "class 0"}
{"substance": "GPREAFRQL", "class_label": "class 0"}
{"substance": "IPSIQSRGL", "class_label": "class 1"}
{"substance": "VFLKPWI", "class_label": "class 1"}
{"substance": "EPRPPHGEL", "class_label": "class 0"}
{"substance": "GPRSSLRVL", "class_label": "class 0"}
{"substance": "RPPPIGAEV", "class_label": "class 0"}

Consider the substance SPAKIHVF . Is its Fold Increase strictly less than 2? class 0

Consider the substance LPRGSSPSVL . Is its Fold Increase strictly less than 2? class 1

Consider the substance APKIGPLGL . Is its Fold Increase strictly less than 2? class 1

Consider the substance RPAGKGSITI . Is its Fold Increase strictly less than 2? class 1

Consider the substance YPFKPPKVAF . Is its Fold Increase strictly less than 2? class 0

Consider the substance ARPATSL . Is its Fold Increase strictly less than 2? class 0

Consider the substance APRPVAVAV . Is its Fold Increase strictly less than 2? class 1

Consider the substance SPRSGLIRV . Is its Fold Increase strictly less than 2? class 1

Consider the substance DPMKARVVL . Is its Fold Increase strictly less than 2? class 1

Consider the substance APPPPPKAL . Is its Fold Increase strictly less than 2? class 0

* * *

Target: sHLA-A*0201 from MCF-7, MDA-MB-231, BT-20 and MCF10A (Homo sapiens, UniProt P04439, D140Y/D185E/D98H/E176V/E277Q/G131W/G231S/I119V/I121R/I166T/I218V/L300P/L318F/N151K/N90K/P208A/P217A/Q86G/Q94H/R138H/R169H/T345S)
Assay: MS comparative analysis of sHLA-A*0201 peptides, breast cancer cell lines vs nontumorigenic MCF10A
Assay type: cell-based
Conditions: peptide epitope presented on sHLA-A*0201; MCF-7 vs nontumorigenic MCF10A
What FOLD INCREASE MCF-7 over MCF10A was measured for each of the following?
One number for each entry.

{"chain": "SLFGGSVKL", "FOLD INCREASE MCF-7 over MCF10A": 5}

Could you tell me FOLD INCREASE MCF-7 over MCF10A for each of these sequences? They are listed below.
1. AQYEHDLEVA
2. SLFPGKLEV
3. KILDLETQL
4. SLLEKSLGL (listed as Homo sapiens)

1. 34
2. 5
3. 9
4. 7.9

* * *

Target: sHLA-A*0201 from MCF-7, MDA-MB-231, BT-20 and MCF10A (Homo sapiens, UniProt P04439, D140Y/D185E/D98H/E176V/E277Q/G131W/G231S/I119V/I121R/I166T/I218V/L300P/L318F/N151K/N90K/P208A/P217A/Q86G/Q94H/R138H/R169H/T345S)
Assay: MS comparative analysis of sHLA-A*0201 peptides, breast cancer cell lines vs nontumorigenic MCF10A
Type: cell-based
Details: peptide epitope presented on sHLA-A*0201; MDA-MB-231 vs nontumorigenic MCF10A
Mark class 1 only for FOLD INCREASE MDA-MB-231 over MCF10A values smaller than 2; exact matches and larger values are class 0.

As a guide, the following entries are already answered.
{"chain": "SLLEKSLGL (listed as Homo sapiens)", "class_label": "class 0"}
{"chain": "KILDLETQL", "class_label": "class 1"}
{"chain": "SLFGGSVKL", "class_label": "class 0"}
{"chain": "TLYEAVREV", "class_label": "class 0"}

Please turn your attention to the following entry.
Consider the sequence SLFPGKLEV . Is its FOLD INCREASE MDA-MB-231 over MCF10A strictly less than 2? class 0

* * *

What FOLD INCREASE BT-20 over MCF10A was measured for each of the following?
Target: sHLA-A*0201 from MCF-7, MDA-MB-231, BT-20 and MCF10A (Homo sapiens, UniProt P04439, D140Y/D185E/D98H/E176V/E277Q/G131W/G231S/I119V/I121R/I166T/I218V/L300P/L318F/N151K/N90K/P208A/P217A/Q86G/Q94H/R138H/R169H/T345S)
Experiment: MS comparative analysis of sHLA-A*0201 peptides, breast cancer cell lines vs nontumorigenic MCF10A
Assay type: cell-based
Settings: peptide epitope presented on sHLA-A*0201; BT-20 vs nontumorigenic MCF10A
Answers are plain numbers.

{"chain": "SLFGGSVKL", "FOLD INCREASE BT-20 over MCF10A": 1.3}

Could you tell me FOLD INCREASE BT-20 over MCF10A for each of these sequences? They are listed below.
1. TLYEAVREV
2. SLFPGKLEV
3. AQYEHDLEVA

7.9
2
8

Looking for the measured FOLD INCREASE BT-20 over MCF10A of KILDLETQL , can you help? 7

* * *

Biological target: B*0702 class I MHC molecules in cells infected with the PR8 strain of influenza A virus (Homo sapiens)
Type: cell-based
measurement_type: Fold Increase
One number for each entry.

// below: answered sequences
{"chain": "APAGRKVGL", "obs_value": 1.5}
{"chain": "LVFQPVAEL", "obs_value": 4.33}
{"chain": "LPKPPGRGV", "obs_value": 1.9}
{"chain": "SPGIPNPGAPL", "obs_value": 1.84}
{"chain": "APNRPPAAL", "obs_value": 1.5}

Could you tell me Fold Increase for each of these sequences? They are listed below.
1. SPPSKPTVL
2. SPGPPTRKL
3. NLGSPRPL
4. PKFEVIEKPQA
5. LPSSGRSSL

[1.9, 1.9, 5.6, 3.6, 2]

Looking for the measured Fold Increase of NLPLSNLAI , can you help? 4.3

* * *

Biological target: A*0201 class I MHC molecules in cells infected with the PR8 strain of influenza A virus (Homo sapiens, UniProt P04439, D140Y/D185E/D98H/E176V/E277Q/G131W/G231S/I119V/I121R/I166T/I218V/L300P/L318F/N151K/N90K/P208A/P217A/Q86G/Q94H/R138H/R169H/T345S)
Assay type: cell-based
measurement_type: Fold Increase
Give bare numbers.

{"chain": "KMYEEFLSKV", "Fold Increase": 1.8}
{"chain": "ILSGVVTKM", "Fold Increase": 1.74}
{"chain": "KLLEGEESRISL", "Fold Increase": 2.1}
{"chain": "SMPDFDLHL", "Fold Increase": 1.83}
{"chain": "RLDDVSNDV", "Fold Increase": 2.55}
{"chain": "KLIGDPNLEFV", "Fold Increase": 2.82}
{"chain": "SIIGRLLEV", "Fold Increase": 56.92}
{"chain": "SMTLAIHEI", "Fold Increase": 2.11}
{"chain": "AIIGGTFTV", "Fold Increase": 4.17}
{"chain": "IIMLEALERV", "Fold Increase": 13.68}

Could you tell me Fold Increase for each of these sequences? They are listed below.
1. GMYVFLHAV
2. LLDANLNIKI
3. ALNDHFVKL
4. GLDIDGIYRV

[2.73, 2.78, 23.02, 1.95]

Could you tell me Fold Increase for each of these sequences? They are listed below.
1. TLAEIAKVEL
2. SMLEDVQRA

1: 3.32; 2: 2.4

Could you tell me Fold Increase for each of these sequences? They are listed below.
1. GLIDGRLTI
2. VLFDVTGQVRL
3. VLLSDSNLHDA
4. SLWSIISKV
5. LLDVVHPA
6. RLIDLGVGL
7. AIVDKVPSV
8. GIWGFIKGV

1: 1.67; 2: 2.48; 3: 10.95; 4: 3.06; 5: 33.09; 6: 2.03; 7: 1.88; 8: 6.1

Could you tell me Fold Increase for each of these sequences? They are listed below.
1. LLLDVPTAAV
2. TLIDLPGITKV
3. VLEDPVHAV
4. GLMTTVHAITA
5. SMMDVDHQI

[1.95, 6.48, 3.91, 3.2, 3.58]

Could you tell me Fold Increase for each of these sequences? They are listed below.
1. ALDEKLLNI
2. LLDVTPLSL
3. FLFNTENKL
4. FLGRINEI

[1.61, 9.68, 1.85, 1.99]

Could you tell me Fold Increase for each of these sequences? They are listed below.
1. KIAPNTPQL
2. KVPEWVDTV
3. ALVSSLHLL
4. LLDVPTAAV
5. ALDKATVLL
6. KLQEFLQTL

2.63
5.94
1.51
5.18
2.13
2.3

Looking for the measured Fold Increase of AVGKVIPEL , can you help? 12.46
